Listed here are sequences together with their documented %Hel buffer.
# assay_text: Far-UV circular dichroism, helix percentage in buffer and with LUVs
# Type: physicochemical
# assay_context: 40 μM peptide in 20 mM sodium phosphate, 150 mM NaCl, pH 7.4; room temperature; from [θ]222 nm; * = β-sheet structure

[
  {
    "sequence_string": "VALRLAKEVIKVQQGW [Tc01, IAP from Theobroma cacao, Embryo defective 1381 isoform 2]",
    "quantity_unit": "%",
    "%Hel buffer": 5.0
  },
  {
    "sequence_string": "LIKVVNHVQYNVTLHWHGIR [Tc07, IAP from Theobroma cacao, Laccase 17]",
    "quantity_unit": "%",
    "%Hel buffer": 23.5
  },
  {
    "sequence_string": "GIVLKDLFSEKLRRYKIVIG [Tc09, IAP from Theobroma cacao, NB-ARC domain-containing disease resistance protein, putative]",
    "quantity_unit": "%",
    "%Hel buffer": 12.3
  },
  {
    "sequence_string": "RVLKDVESALRESVANWKIVIG [Tc04, IAP from Theobroma cacao, Purple acid phosphatase 3]",
    "quantity_unit": "%",
    "%Hel buffer": 14.3
  },
  {
    "sequence_string": "LLDKLKRTLLSIEAVLI [Tc11, IAP from Theobroma cacao, LRR and NB-ARC domains-containing disease resistance protein]",
    "quantity_unit": "%",
    "%Hel buffer": 45.8
  }
]

---

# System: human red blood cells
# assay_text: Cytotoxicity: hemolysis of human red blood cells
# Format: cell-based
No end group written: not given here.
Hi! Could you tag entries with Hemolytic activity (% ± SD) at 8 µM below 0.02% as met, and those at or above as not met? Much appreciated.

[
  {
    "substance": "GSLHGFMYKYLKTLVLRLY-NH2 [Zm01]",
    "class_label": "met"
  },
  {
    "substance": "GSLHGFMYKYLKNMVLNLF-NH2 [Tc06]",
    "class_label": "met"
  },
  {
    "substance": "IVNHLVKLFDKGLNSIVNLR-NH2 [Tc05]",
    "class_label": "not met"
  },
  {
    "substance": "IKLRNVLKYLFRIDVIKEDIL-NH2 [Tc03]",
    "class_label": "not met"
  },
  {
    "substance": "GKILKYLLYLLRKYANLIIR-NH2 [Tc02]",
    "class_label": "not met"
  },
  {
    "substance": "FFYNVIKIYGNMAGRISK-NH2 [Cs03]",
    "class_label": "met"
  },
  {
    "substance": "GSLHGFMYRYLKNMVLNLF-NH2 [Cs01]",
    "class_label": "not met"
  },
  {
    "substance": "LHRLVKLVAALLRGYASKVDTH [Tc08]",
    "class_label": "not met"
  },
  {
    "substance": "KVLSKVHTLLKAVLAL-NH2 [At02]",
    "class_label": "met"
  },
  {
    "substance": "GLWSTIKQKGKEAAIAAAKAAGQAALGAL-NH2 [DS01, Dermaseptin DS01, reference compound]",
    "class_label": "not met"
  },
  {
    "substance": "ANRLLEAYKMLLKFLGNLR-NH2 [Gr02]",
    "class_label": "not met"
  },
  {
    "substance": "GSLHGFMYKYLKNMVLTLF-NH2 [At01]",
    "class_label": "met"
  },
  {
    "substance": "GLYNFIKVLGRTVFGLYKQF-NH2 [At04]",
    "class_label": "not met"
  },
  {
    "substance": "GFKLGRKLVKVFKWII-NH2 [Gr01]",
    "class_label": "not met"
  },
  {
    "substance": "GLLFKELQKLIRYQIFIGK-NH2 [Tc10]",
    "class_label": "not met"
  }
]

---

# Tested on: Bacillus subtilis
# assay_text: microbe, parasite or virus in culture
# assay_context: ATCC 23857; Mueller-Hinton; 37 °C, 24 h; start 5.0 x 10^5 cells; 256-0.5 µM; mean ± SD of 3 biological repetitions (SD 0 not displayed); N/A = no antimicrobial activity observed
No end group written: not given here.
reported_metric: Minimum inhibitory concentration, Bacillus subtilis (µM)

[
  {
    "substance": "GSLHGFMYKYLKTLVLRLY-NH2 [Zm01]",
    "quantity_unit": "µM",
    "data_value": 8.0
  },
  {
    "substance": "FFGHIWHGARTLFRDVFA-NH2 [Cs02]",
    "quantity_unit": "µM",
    "data_value": 3.33
  },
  {
    "substance": "GFKLGRKLVKVFKWII-NH2 [Gr01]",
    "quantity_unit": "µM",
    "data_value": 1.0
  },
  {
    "substance": "GSLHGFMYRYLKNMVLNLF-NH2 [Cs01]",
    "quantity_unit": "µM",
    "data_value": 8.0
  }
]

---

# System: Moniliophthora perniciosa basidiospores
# assay_text: Inhibition of M. perniciosa basidiospore germination
# Type: cell-based
# assay_context: concentration at which at least 50% of basidiospores germination was inhibited; 1 × 10^6 basidiospores mL^−1, one hour with peptide (256-0.5 µM), 24 °C; counted after 4 hours on agar slides; biological triplicates; read-out: Inhibitory concentration IC50, M. perniciosa basidiospores germination
No end group written: not given here.

[
  {
    "substance": "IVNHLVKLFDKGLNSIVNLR-NH2 [Tc05]",
    "IC50 / µM": 128
  },
  {
    "substance": "GFKDLLKGAAKALVKTVLF-NH2 [Asc-8, Ascaphin-8, reference compound]",
    "IC50 / µM": 8
  },
  {
    "substance": "GSLHGFMYKYLKNMVLNLF-NH2 [Tc06]",
    "IC50 / µM": 32
  },
  {
    "substance": "GLLFKELQKLIRYQIFIGK-NH2 [Tc10]",
    "IC50 / µM": 32
  },
  {
    "substance": "GLWSTIKQKGKEAAIAAAKAAGQAALGAL-NH2 [DS01, Dermaseptin DS01, reference compound]",
    "IC50 / µM": 128
  },
  {
    "substance": "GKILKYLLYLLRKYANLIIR-NH2 [Tc02]",
    "IC50 / µM": 8
  }
]

---

# assay_text: Far-UV circular dichroism, helix percentage in buffer and with LUVs
# Type: physicochemical
# assay_context: 40 μM peptide + 2 mM 2:1 DMPC:DMPG LUVs (50 fold excess); pH 7.4 buffer; room temperature; from [θ]222 nm; * = β-sheet structure
Listed here are sequences together with their documented %Hel 2:1 DMPC/DMPG.
reported_metric: %Hel 2:1 DMPC/DMPG (%)

[
  {
    "sequence_string": "LIKVVNHVQYNVTLHWHGIR [Tc07, IAP from Theobroma cacao, Laccase 17]",
    "quantity_unit": "%",
    "data_value": 19.9
  },
  {
    "sequence_string": "RVLKDVESALRESVANWKIVIG [Tc04, IAP from Theobroma cacao, Purple acid phosphatase 3]",
    "quantity_unit": "%",
    "data_value": 36.3
  },
  {
    "sequence_string": "VALRLAKEVIKVQQGW [Tc01, IAP from Theobroma cacao, Embryo defective 1381 isoform 2]",
    "quantity_unit": "%",
    "data_value": 64.8
  },
  {
    "sequence_string": "GIVLKDLFSEKLRRYKIVIG [Tc09, IAP from Theobroma cacao, NB-ARC domain-containing disease resistance protein, putative]",
    "quantity_unit": "%",
    "data_value": 0.0
  },
  {
    "sequence_string": "LLDKLKRTLLSIEAVLI [Tc11, IAP from Theobroma cacao, LRR and NB-ARC domains-containing disease resistance protein]",
    "quantity_unit": "%",
    "data_value": 56.7
  }
]

---

# Test system: human red blood cells
# assay_text: Cytotoxicity: hemolysis of human red blood cells
# Type: cell-based
No end group written: not given here.
Decision: Hemolytic activity (% ± SD) at 16 µM compared against 0.4%; not below it gives yes (1), below it gives no (0).

[
  {
    "substance": "GSLHGFMYRYLKNMVLNLF-NH2 [Cs01]",
    "class_label": "no (0)"
  },
  {
    "substance": "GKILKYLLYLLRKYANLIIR-NH2 [Tc02]",
    "class_label": "yes (1)"
  },
  {
    "substance": "KVLSKVHTLLKAVLAL-NH2 [At02]",
    "class_label": "no (0)"
  },
  {
    "substance": "GLLFKELQKLIRYQIFIGK-NH2 [Tc10]",
    "class_label": "no (0)"
  },
  {
    "substance": "GAKLAKKQVRALGKFFSF-NH2 [At03]",
    "class_label": "no (0)"
  },
  {
    "substance": "GLWSTIKQKGKEAAIAAAKAAGQAALGAL-NH2 [DS01, Dermaseptin DS01, reference compound]",
    "class_label": "yes (1)"
  },
  {
    "substance": "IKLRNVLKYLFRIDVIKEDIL-NH2 [Tc03]",
    "class_label": "no (0)"
  },
  {
    "substance": "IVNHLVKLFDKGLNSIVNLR-NH2 [Tc05]",
    "class_label": "yes (1)"
  },
  {
    "substance": "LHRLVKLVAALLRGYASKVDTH [Tc08]",
    "class_label": "yes (1)"
  },
  {
    "substance": "GSLHGFMYKYLKNMVLTLF-NH2 [At01]",
    "class_label": "no (0)"
  }
]
